assay: Hemolytic activity in human RBC at 128 ug/ml incubated for 60 mins relative to control; assay type: ADME, cell-based, Erythrocyte; conditions: red blood cells (erythrocytes), dose 128 µg/ml, read-out: Activity
measured.quantity: hemolysis at 1 h, 128 ug/ml (%)
Answers are plain numbers, in %.

Can you share its hemolysis at 1 h, 128 ug/ml? I mean this compound: "O=C(Nc1nnc(-c2cccs2)o1)c1ccc(S(=O)(=O)C(F)(F)F)cc1"
37

# lookup: hemolysis at 1 h, 128 ug/ml of "O=C(Nc1nnc(-c2cccs2)o1)c1ccc(OC(F)(F)F)cc1"
20

Query: hemolysis at 1 h, 128 ug/ml; subject: "O=C(Nc1nnc(-c2cccs2)o1)c1ccc(SC(F)(F)F)cc1"
19

New cases:
What does the record list as hemolysis at 1 h, 128 ug/ml for "O=C(Nc1nnc(-c2cccs2)o1)c1ccc(S(F)(F)(F)(F)F)cc1" ?
9

* * *

Consider the following molecules; for each one, report its MIC.
test system: Staphylococcus aureus; assay: Antibacterial activity against methicillin-resistant Staphylococcus aureus NRS 119 assessed as inhibition of visible bacterial growth incubated for 18 to 20 hrs by CLSI method; type: functional; conditions: time 18-20 hrs
Answers are plain numbers, in µg/mL.

Dear colleague, could you please provide MIC for the molecules listed below?
1. O=C(Nc1nnc(-c2cccs2)o1)c1ccc(S(F)(F)(F)(F)F)cc1
2. O=C(Nc1nnc(-c2cccs2)o1)c1ccc(SC(F)(F)F)cc1
3. O=C(Nc1nnc(-c2cccs2)o1)c1ccc(OC(F)(F)F)cc1
4. O=C(Nc1nnc(-c2cccs2)o1)c1ccc(S(=O)(=O)C(F)(F)F)cc1

[0.06, 0.5, 1, 8]

* * *

test system: Staphylococcus aureus; assay: Antibacterial activity against methicillin-sensitive Staphylococcus aureus ATCC 6538 assessed as inhibition of visible bacterial growth incubated for 18 to 20 hrs by CLSI method; format: functional; conditions: time 18-20 hrs
Answer each item with its documented MIC.
Answers are plain numbers, in µg/mL.

# lookup: MIC of "O=C(Nc1nnc(-c2cccs2)o1)c1ccc(S(F)(F)(F)(F)F)cc1"
0.5

// returns reported MIC for input "CC(=O)NC[C@H]1CN(c2ccc(N3CCOCC3)c(F)c2)C(=O)O1"
0.5

Need MIC of "O=C(Nc1nnc(-c2cccs2)o1)c1ccc(SC(F)(F)F)cc1" , thanks.
0.5

Param item = "O=C(Nc1nnc(-c2cccs2)o1)c1ccc(OC(F)(F)F)cc1" ; retrieve measured MIC.
1

Others:
May I ask what MIC has been recorded for "O=C(Nc1nnc(-c2cccs2)o1)c1ccc(S(=O)(=O)C(F)(F)F)cc1" ?
8

* * *

tested on: Staphylococcus aureus; test: Antibacterial activity against methicillin-sensitive Staphylococcus aureus NRS 107 assessed as inhibition of visible bacterial growth incubated for 18 to 20 hrs by CLSI method; format: functional; conditions: time 18-20 hrs
measured.quantity: MIC
Kindly report the value followed by its unit.

Check out these entries, answers already filled in.
Can you share its MIC? I mean this compound: "O=C(Nc1nnc(-c2cccs2)o1)c1ccc(S(=O)(=O)C(F)(F)F)cc1"
4 µg/mL

Reported MIC for "O=C(Nc1nnc(-c2cccs2)o1)c1ccc(OC(F)(F)F)cc1" : what is it?
1 µg/mL

So what does the record say about MIC for "O=C(Nc1nnc(-c2cccs2)o1)c1ccc(S(F)(F)(F)(F)F)cc1" ?
0.125 µg/mL

Name the recorded MIC for "O=C(Nc1nnc(-c2cccs2)o1)c1ccc(SC(F)(F)F)cc1" .
0.25 µg/mL

Next:
Which measured MIC value corresponds to "CC(=O)NC[C@H]1CN(c2ccc(N3CCOCC3)c(F)c2)C(=O)O1" ?
0.5 µg/mL

* * *

system: Staphylococcus aureus; experiment: Antibacterial activity against methicillin-resistant Staphylococcus aureus NRS387 assessed as inhibition of visible bacterial growth incubated for 18 to 20 hrs by CLSI method; assay type: functional; settings: time 18-20 hrs
measured.quantity: MIC (µg/mL)
Numbers only, in µg/mL.

The following compounds have reported results that may help.
Record "O=C(Nc1nnc(-c2cccs2)o1)c1ccc(SC(F)(F)F)cc1" : what is its MIC with Staphylococcus aureus?
0.125

// lookup MIC | system=Staphylococcus aureus | key= "CC(=O)NC[C@H]1CN(c2ccc(N3CCOCC3)c(F)c2)C(=O)O1"
1

Item "O=C(Nc1nnc(-c2cccs2)o1)c1ccc(S(F)(F)(F)(F)F)cc1" with Staphylococcus aureus - MIC?
0.25

Give MIC (Staphylococcus aureus) of the following compound: "O=C(Nc1nnc(-c2cccs2)o1)c1ccc(OC(F)(F)F)cc1"
2

With those in mind, consider the next compound.
Find MIC (Staphylococcus aureus) for the entry "O=C(Nc1nnc(-c2cccs2)o1)c1ccc(S(=O)(=O)C(F)(F)F)cc1"
4
